Experiment: Phase 1 multiple ascending dose (MAD) study Part 1, healthy volunteers (PK and safety)
Details: LYT-100 500 mg BID with food
endpoint-name: observed Cmax (ng/mL)
Reply numerically in ng/mL, unit not repeated.

# input Consider the compound O=C(O)c1ccc(=O)n(-c2ccccc2)c1 and give its measured observed Cmax.
# output 2360

###

Assay: Phase 1 multiple ascending dose (MAD) study Part 1, healthy volunteers (PK and safety)
Settings: LYT-100 100 mg BID with food
endpoint-name: observed Cmax (ng/mL)
Reply numerically in ng/mL, unit not repeated.

# input Consider the compound O=C(O)c1ccc(=O)n(-c2ccccc2)c1 [LYT-105, 5-carboxy-pirfenidone] and give its measured observed Cmax.
# output 567
